- System: QSK
- Test Settings: concentration: 1 μM, replicates: in singlicate; n = 1;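 further: KINOMEscan kinase panel screen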
Measurement Type: %Inh (%)
Answer in %, number only, no unit symbol.

Query (molecule): `Cl.Cl.Cl.Fc1ccc(-c2ncn(C3CCNCC3)c2-c2ccnc(Nc3ccccc3)n2)cc1` ; field requested: %Inh
0

Query (molecule): `COc1ccc(Nc2ncc(C#N)c(Nc3ccccc3C(N)=O)n2)cc1N1CCN(C)CC1.Cl` ; field requested: %Inh
94.7

Query (molecule): COc1ccc(Nc2nccc(N3CCC(NC(=O)Nc4cc(C)ccc4C)C3)n2)cc1 (centres unmarked) ; field requested: %Inh
1

Query (molecule): `CNc1ncnc2[nH]ncc12` ; field requested: %Inh
5

Query (molecule): `CCc1ccnc(/C=C/c2n[nH]c3cc(Sc4ccccc4C(=O)NC)ccc23)c1` ; field requested: %Inh
0

====

- Tested on: ROS1
- Test Settings: concentration: 1 μM, replicates: in singlicate; n = 1
Give %Inh for every item shown.
Answer in %, number only, no unit symbol.

Query (compound): `O=C(Nc1n[nH]c2cc(-c3cccc(F)c3)ccc12)C1CC1` ; field requested: %Inh
16

Query (compound): Cc1nnc(-c2ccc3occ(-c4ccc(C(C)O)cc4)c3c2)o1 (centres unmarked) ; field requested: %Inh
0

Query (compound): `O=C1NC(=O)C(N2CCc3ccccc32)=C1c1cccc(Cl)c1` ; field requested: %Inh
0

Query (compound): `N#Cc1ccc(-c2cc(-c3c[nH]nc3-c3ccccn3)ccn2)cc1` ; field requested: %Inh
0

Query (compound): `O=C(NCCNc1ccnc(Nc2ccc(F)cc2)n1)Nc1ccccc1F` ; field requested: %Inh
0

Query (compound): `C[C@@H](Oc1cc(-n2cnc3ccc(NC(=O)NC(C)(C)C)cc32)sc1C(N)=O)c1ccccc1Cl` ; field requested: %Inh
33

Query (compound): `Cn1cc(-c2ccc3c(c2)CCN3C(=O)Cc2ccccc2Cl)c2c(N)ncnc21` ; field requested: %Inh
86

Query (compound): `COc1ccc(Nc2ncc(C#N)c(Nc3ccccc3C(N)=O)n2)cc1N1CCN(C)CC1.Cl` ; field requested: %Inh
97

Query (compound): `O=C(c1ccc(-c2cc(-c3c[nH]nc3-c3ccccn3)ccn2)cc1)N1CCOCC1` ; field requested: %Inh
0

Query (compound): `Cc1cccc(-c2nc(Nc3ccc4ncsc4c3)c3ccccc3n2)n1` ; field requested: %Inh
17

Query (compound): COc1ccc(Nc2nccc(N3CCC(NC(=O)Nc4cc(C)ccc4C)C3)n2)cc1 (centres unmarked) ; field requested: %Inh
0

Query (compound): `CCCCCc1nc2c(N)ncnc2n1CCCCC` ; field requested: %Inh
1

Query (compound): `O=C1Cc2cc(Nc3nc(NCc4cccc(S(=O)(=O)C(F)(F)F)c4)ncc3C(F)(F)F)ccc2N1` ; field requested: %Inh
3

Query (compound): `NS(=O)(=O)c1cccc(-c2ccc3nccc(-c4cccc(S(N)(=O)=O)c4)c3c2)c1` ; field requested: %Inh
0

Query (compound): `N#Cc1c(N2CCOCC2)sc(-c2ccn[nH]2)c1-c1ccc(Cl)cc1` ; field requested: %Inh
8

Query (compound): `Cc1ccc(C(=O)NCC(N)=O)cc1-n1c(C)cc(OCc2ccc(F)cc2F)c(Br)c1=O` ; field requested: %Inh
20

Query (compound): NCC(NC(=O)c1cc(-c2cn[nH]c2)c(-c2ccnc3[nH]ccc23)s1)c1ccccc1.O=C(O)C(F)(F)F.O=C(O)C(F)(F)F (centres unmarked) ; field requested: %Inh
0

====

- System: EPHA3
- Test Settings: concentration: 1 μM, replicates: in singlicate; n = 1
Measurement Type: %Inh (%)
Answer in %, number only, no unit symbol.

Query (molecule): `CC(=O)Nc1ccc(COc2ccc(Nc3ccnc4cc(-c5ccccn5)ccc34)cc2)cc1.Cl` ; field requested: %Inh
17

Query (molecule): Cc1nnc(-c2ccc3ncc(-c4ccc(S(C)=O)cc4)n3c2)o1 (stereo not drawn) ; field requested: %Inh
2

Query (molecule): `CCCCCc1nc2c(N)ncnc2n1CCCCC` ; field requested: %Inh
0

Query (molecule): `O=C(NCCNc1ccnc(Nc2ccc(F)cc2)n1)Nc1ccccc1F` ; field requested: %Inh
0

Query (molecule): `COc1cc2c(cc1OC[C@@H](O)CO)ncc1c3ccc(C#N)cc3[nH]c21` ; field requested: %Inh
0

Query (molecule): `Cc1cccc(Cn2ccn3c(=O)cc(N4CCOCC4)nc23)c1` ; field requested: %Inh
12

Query (molecule): `O=C(NCCCN1CCOCC1)c1cccc(Nc2nccc(Nc3ccc(Oc4ccccc4)cc3)n2)c1` ; field requested: %Inh
25

Query (molecule): `Fc1ccc(-c2ncn(CCCN3CCOCC3)c2-c2cccnc2)cc1` ; field requested: %Inh
1

Query (molecule): `c1ccc(-c2cc(-c3c[nH]nc3-c3ccccn3)ccn2)cc1` ; field requested: %Inh
15

====

- Test system: PAK6
- Test Settings: concentration: 1 μM, replicates: in singlicate; n = 1
Measurement Type: %Inh
Number plus unit, in that order.

Query (compound): `COc1cc2c(cc1OC[C@@H](O)CO)ncc1c3ccc(C#N)cc3[nH]c21` ; field requested: %Inh
0%

Query (compound): COc1ccc(Nc2nccc(N3CCC(NC(=O)Nc4cc(C)ccc4C)C3)n2)cc1 (centres unmarked) ; field requested: %Inh
0%

Query (compound): `CCc1nc(-c2cccc(C)c2)c(-c2ccnc(NCc3ccccc3)c2)s1` ; field requested: %Inh
11%

Query (compound): `O=C(c1ccc(-c2cc(-c3c[nH]nc3-c3ccccn3)ccn2)cc1)N1CCOCC1` ; field requested: %Inh
0%

Query (compound): `Cc1ccc(C(=O)NCC(N)=O)cc1-n1c(C)cc(OCc2ccc(F)cc2F)c(Br)c1=O` ; field requested: %Inh
12%

Query (compound): `CSc1ccc(-c2cc3ncnc(SCC(=O)O)c3s2)cc1` ; field requested: %Inh
0%

Query (compound): `C[C@@H](Oc1cc(-n2cnc3ccc(NC(=O)NC(C)(C)C)cc32)sc1C(N)=O)c1ccccc1Cl` ; field requested: %Inh
2%

Query (compound): `Cc1c2ccc(N(C)c3ccnc(Nc4cccc(S(N)(=O)=O)c4)n3)cc2nn1Cc1ccccc1.Cl.Cl` ; field requested: %Inh
0%

Query (compound): `CCn1cnc2c(N)ncnc21` ; field requested: %Inh
13%

Query (compound): `c1ccc(-c2n[nH]cc2-c2ccnc3ccccc23)nc1` ; field requested: %Inh
11%

Query (compound): `CN(C1=C(c2ccccc2)C(=O)NC1=O)c1ccccc1` ; field requested: %Inh
0%

====

- System: CDKL1
- Test Settings: concentration: 1 μM, replicates: in singlicate; n = 1
Measurement Type: %Inh (%)
Answer in %, number only, no unit symbol.

Query (compound): `CSc1ccc(-c2cc3ncnc(SCC(=O)O)c3s2)cc1` ; field requested: %Inh
4

Query (compound): [2H]C([2H])(c1cccc(C(F)(F)F)c1C)n1ccn2c(=O)nc(N3CCOCC3)cc12 [GSK2336394] ; field requested: %Inh
8

Query (compound): Cc1nnc(-c2ccc(C)c(-c3ccc(C(=O)Nc4ccc(NS(C)(=O)=O)cc4)cc3)c2)o1 [GW702865] ; field requested: %Inh
5

Query (compound): Fc1ccc(-c2ncn(CCCN3CCOCC3)c2-c2ccccn2)cc1 [SB-211742] ; field requested: %Inh
40

Query (compound): CC(C)(C)n1cnc2c(N)ncnc21 [SKF-97359] ; field requested: %Inh
0

====

- Tested on: PRKD1
- Test Settings: concentration: 1 μM, replicates: in singlicate; n = 1
Measurement Type: %Inh (%)
Answer in %, number only, no unit symbol.

Query (molecule): `Cc1ccc(NC(=O)c2ccnc(N3CCN(C)CC3)c2)cc1-c1ccc(C(=O)NCC2CC2)cc1` ; field requested: %Inh
0

Query (molecule): `CCc1ccnc(/C=C/c2n[nH]c3cc(Sc4ccccc4C(=O)NC)ccc23)c1` ; field requested: %Inh
0

Query (molecule): Cc1nnc(-c2ccc3occ(-c4ccc(C(C)O)cc4)c3c2)o1 (stereo not shown) ; field requested: %Inh
11

Query (molecule): `Cc1cccc(Cn2ccn3c(=O)cc(N4CCOCC4)nc23)c1` ; field requested: %Inh
13

Query (molecule): COc1cc(Nc2nccc(N3CCC(NC(=O)c4cccc(NC(C)=O)c4)C3)n2)cc(OC)c1OC (stereo not shown) ; field requested: %Inh
0

Query (molecule): `CC(C)(C)n1cnc2c(N)ncnc21` ; field requested: %Inh
0

Query (molecule): `O=C1NC(=O)C(N2CCc3ccccc32)=C1c1cccc(Cl)c1` ; field requested: %Inh
4

====

- Test system: AKT1
- Test Settings: concentration: 1 μM, replicates: in singlicate; n = 1
Measurement Type: %Inh (%)
Answer in %, number only, no unit symbol.

What %Inh appears in the records for this compound with AKT1? Fc1ccc(-c2ncn(CCCN3CCOCC3)c2-c2ccccn2)cc1 [SB-211742]
15

What %Inh appears in the records for this compound with AKT1? Cc1c(Cn2c(C)nn3c(=O)cc(N4CCOC(C)C4)nc23)cccc1C(F)(F)F (stereo not drawn) [GSK2344444]
0

What %Inh appears in the records for this compound with AKT1? CN(C1=C(c2ccccc2)C(=O)NC1=O)c1ccccc1 [SB-334860]
0

What %Inh appears in the records for this compound with AKT1? Fc1ccc(-c2nn3c(OCC(F)(F)F)cccc3c2-c2ccncc2)cc1 [GW514784]
0

What %Inh appears in the records for this compound with AKT1? O=C(Nc1n[nH]c2cc(-c3cccc(F)c3)ccc12)C1CC1 [SB-735464]
0

What %Inh appears in the records for this compound with AKT1? Nc1nc(-c2ccc3c(N)n[nH]c3c2)cc(N2CCCC2)n1 [GSK2227430]
0

What %Inh appears in the records for this compound with AKT1? `CN1c2ccc(CNc3ccc(F)cc3)cc2-c2c(cnn2C)S1(=O)=O`
0

What %Inh appears in the records for this compound with AKT1? `Cn1ccc2ncnc(Oc3ccc(NC(=O)Nc4ccncc4)c(Cl)c3)c21`
9

What %Inh appears in the records for this compound with AKT1? Cc1nnc(-c2ccc3ncc(-c4ccc(S(C)=O)cc4)n3c2)o1 (stereo not drawn)
3

What %Inh appears in the records for this compound with AKT1? Cn1cc(-c2ccc3c(c2)CCN3C(=O)Cc2ccccc2Cl)c2c(N)ncnc21 [GSK2608885]
0

What %Inh appears in the records for this compound with AKT1? Cl.Nc1ncnc2occ(-c3ccc(NC(=O)Nc4cc(C(F)(F)F)ccc4F)cc3)c12 [SB-707548]
0

What %Inh appears in the records for this compound with AKT1? `O=C1Cc2cc(Nc3nc(NCc4cccc(S(=O)(=O)C(F)(F)F)c4)ncc3C(F)(F)F)ccc2N1`
0

What %Inh appears in the records for this compound with AKT1? [2H]C([2H])(c1cccc(C(F)(F)F)c1C)n1ccn2c(=O)nc(N3CCOCC3)cc12 [GSK2336394]
0

What %Inh appears in the records for this compound with AKT1? `CCc1ccnc(/C=C/c2n[nH]c3cc(Sc4ccccc4C(=O)NC)ccc23)c1`
0

What %Inh appears in the records for this compound with AKT1? NS(=O)(=O)CCc1cccc(Nc2nccc(-c3c(-c4cccc(NC(=O)c5c(F)cccc5F)c4)nn4ccccc34)n2)c1 [GSK336735]
0

What %Inh appears in the records for this compound with AKT1? c1ccc(-c2cc(-c3c[nH]nc3-c3ccccn3)ccn2)cc1 [GW576604]
0

What %Inh appears in the records for this compound with AKT1? CN(C(=O)c1ccc(-c2cc(-c3c[nH]nc3-c3ccccn3)ccn2)cc1)C1CCOCC1 [GW810083]
0

What %Inh appears in the records for this compound with AKT1? O=C1NC(=O)C(N2CCc3ccccc32)=C1c1cccc(Cl)c1 [SB-408010]
5
